// reported melting point per item

[
  {
    "item-smiles": "CCSc1cc(C)nc(SCC)c1NC(=O)CCCCCSc1nc2ccccc2s1",
    "melting point": "81 to 83 °C"
  },
  {
    "item-smiles": "CCSc1cc(C)nc(SCC)c1NC(=O)CSc1nc2cccc(S(C)(=O)=O)c2o1",
    "melting point": "159 to 162 °C"
  },
  {
    "item-smiles": "CSc1cc(C)nc(SC)c1NC(=O)CCCCSc1nc2ccccc2o1",
    "melting point": "147 to 150 °C"
  },
  {
    "item-smiles": "CCSc1cc(C)nc(SCC)c1NC(=O)CCCCCCCCSc1nc2c(C)c(Cl)cc(C(C)C)c2o1",
    "melting point": "93 to 94 °C"
  },
  {
    "item-smiles": "CCSc1cc(C)nc(SCC)c1NC(=O)CSc1nc2cccc(C(F)(F)F)c2o1",
    "melting point": "182 to 183 °C"
  },
  {
    "item-smiles": "Cc1cc(SC(C)C)c(NC(=O)CCCCCCCCSc2nc3ccccc3[nH]2)c(SC(C)C)n1",
    "melting point": "112 to 114 °C"
  },
  {
    "item-smiles": "CCSc1cc(C)nc(SCC)c1NC(=O)CCCCCCCSc1nc2ccccc2[nH]1",
    "melting point": "166 to 168 °C"
  },
  {
    "item-smiles": "CSc1cc(C)nc(SC)c1NC(=O)CCCCCSc1nc2ccccc2[nH]1",
    "melting point": "139 to 141 °C"
  },
  {
    "item-smiles": "CCSc1cc(C)nc(SCC)c1NC(=O)CCCCCCCCSc1nc2ccccc2o1",
    "melting point": "84 to 87 °C"
  },
  {
    "item-smiles": "CSc1cc(C)nc(SC)c1NC(=O)CCCCCCCSc1nc2ccccc2s1",
    "melting point": "104 to 108 °C"
  },
  {
    "item-smiles": "CCSc1cc(C)nc(SCC)c1NC(=O)CCCCSc1nc2ccccc2o1",
    "melting point": "122 to 123 °C"
  },
  {
    "item-smiles": "Cc1cc(SC(C)C)c(NC(=O)CCCSc2nc3c(C)c(Cl)cc(C(C)C)c3o2)c(SC(C)C)n1",
    "melting point": "141 to 143 °C"
  },
  {
    "item-smiles": "CSc1cc(C)nc(SC)c1NC(=O)CCCCCCSc1nc2ccccc2o1",
    "melting point": "137 to 139 °C"
  },
  {
    "item-smiles": "CCSc1cc(C)nc(SCC)c1NC(=O)CCCCCCSc1nc2cccc(C(F)(F)F)c2o1",
    "melting point": "127 to 128 °C"
  },
  {
    "item-smiles": "CSc1ncccc1NC(=O)CCCCCSc1nc2ccccc2o1",
    "melting point": "127 to 128 °C"
  },
  {
    "item-smiles": "CCSc1cc(C)nc(SCC)c1NC(=O)CCCCCCSc1nc2ccccc2o1",
    "melting point": "103 to 105 °C"
  },
  {
    "item-smiles": "CSc1nc(C)ccc1NC(=O)CCCCCCCCSc1nc2ccccc2o1",
    "melting point": "99 to 100 °C"
  },
  {
    "item-smiles": "Cc1cc(SC(C)C)c(NC(=O)CSc2nc3ccccc3[nH]2)c(SC(C)C)n1",
    "melting point": "223 to 224 °C"
  },
  {
    "item-smiles": "CSc1cc(C)nc(SC)c1NC(=O)CCCCCCCSc1nc2ccccc2[nH]1",
    "melting point": "186 to 187 °C"
  },
  {
    "item-smiles": "CSc1nc(SC)c(NC(=O)CCCCCSc2nc3ccccc3o2)c(SC)n1",
    "melting point": "149 to 153 °C"
  }
]

Every entry's value here was drawn from patent US7414066B2.
